Kindly state melting point for each of the entries shown.

### Prompt Report melting point for `CCOC(=O)c1cn(CCc2ccc(Cl)cc2)c2cc(C3CC3)nn2c1=O` please.
### Response 190 to 195 °C

### Prompt Look at this molecule and give its reported melting point. `O=C(O)c1c[nH]c2cc(C(F)(F)F)nn2c1=O`
### Response > 340 °C

### Prompt # input molecule: `CCOC(=O)c1c[nH]c2nc(NCc3ccc(Br)cc3)nn2c1=O` ; wanted: its melting point
### Response 286 to 287 °C

### Prompt Give the measured melting point of `O=C(O)c1c[nH]c2cc(C3CC3)nn2c1=O` .
### Response 275 to 278 °C

### Prompt Need melting point of `CCOC(=O)c1c[nH]c2cc(C(=O)NCCc3ccc(Cl)cc3)nn2c1=O` , thanks.
### Response > 300 °C
